- tested.target: T1, 4H2903-AA
- T1 chain: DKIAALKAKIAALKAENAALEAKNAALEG
- assay.method.text: two-hybrid library CCmax;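 further: natural log of median RNA to DNA barcode read ratio; higher means stronger binding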
- details: mean of both orientations
Hi there, I'd appreciate the recorded interaction score for every entry that follows.
I only need the number, thanks.

query: Item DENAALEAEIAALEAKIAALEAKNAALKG [4H1064-AA] : provide interaction score
result: 1.45

query: Provide one value: measured interaction score of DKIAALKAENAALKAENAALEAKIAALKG [4H2774-AA]
result: -1.73

query: Answer with reported interaction score of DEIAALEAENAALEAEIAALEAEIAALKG [4H130-AA]
result: -1.15

query: Dear colleague, please send me the reported interaction score for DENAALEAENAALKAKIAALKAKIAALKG [4H1262-AA] when you can.
result: -1.83

query: Look up interaction score of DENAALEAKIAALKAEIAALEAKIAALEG [4H1349-AA] and report it.
result: -0.278

query: Complete the entry with interaction score for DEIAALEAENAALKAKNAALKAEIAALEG [4H249-AA]
result: -0.757

query: Tell us which interaction score value is on record for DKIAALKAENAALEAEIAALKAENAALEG [4H2699-AA]
result: -1.69

query: Give the measured interaction score for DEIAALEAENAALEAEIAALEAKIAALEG [4H133-AA]
result: -1.62

The reported measurements were obtained from paper PMC10397247.
